Provide the recorded CC50 for the entries that follow.
- ASSAY: Cytotoxicity against human HeLa cells by luminescence assay
- Type: cell-based
Answers are plain numbers, in µM.

Consider the worked cases shown below.
{"COMPOUND": "CC(C)N1C(=O)[C@H](CCCn2cnc3c(NCc4ccccc4)ncnc32)[C@H]1c1ccccc1F (relative stereo)", "VALUE UNIT": "µM", "CC50": 75.6}
{"COMPOUND": "OC[C@@H](Oc1ccccc1)[C@H](NCCn1cnc2c(NCc3ccccc3)ncnc21)c1ccc(Cl)cc1 (relative stereo)", "VALUE UNIT": "µM", "CC50": 8.23}
{"COMPOUND": "O=C1[C@@H](OCc2ccccc2)[C@@H](c2ccc(Cl)cc2Cl)N1CCCn1cnc2c(NCc3ccccc3)ncnc21 (relative stereo)", "VALUE UNIT": "µM", "CC50": 40.1}

In the following, a different compound is considered.
Q. Please give the measured CC50 for this compound: O=C1[C@@H](Oc2ccccc2)[C@@H](c2ccccc2)N1CCCn1cnc2c(NCc3ccccc3)ncnc21 (relative stereo)
A. 46.6

* * *

- ASSAY: Selectivity index, ratio of CC50 for HepG2 cells to EC50 for Hepatitis B virus
- Assay type: toxicity, cell-based
- MEASUREMENT PARAMETERS: human, read-out: Ratio CC50/EC50
Provide the recorded selectivity ratio for the entries that follow.
Give bare numbers.

{"COMPOUND": "O=C1[C@@H](OCc2ccccc2)[C@@H](c2ccccc2)N1CCn1cnc2c(NCc3ccccc3)ncnc21 (relative stereo)", "selectivity ratio": 4.52}

Q. Please give the measured selectivity ratio for this compound: OC[C@@H](Oc1ccccc1)[C@H](NCCn1cnc2c(NCc3ccccc3)ncnc21)c1ccc(Cl)cc1 (relative stereo)
A. 9.19

* * *

- ASSAY: Cytotoxicity against human HepG2 cells by resazurin assay
- Type: cell-based
OUTCOME MEASURE: CC50 (µM)
Give bare numbers, in µM.

Q. Please give the measured CC50 for this compound: OC[C@@H](Oc1ccccc1)[C@H](NCCn1cnc2c(NCc3ccccc3)ncnc21)c1ccc(Cl)cc1 (relative stereo)
A. 31.9

* * *

- ASSAY: Selectivity index, ratio of CC50 for Hel299 cells to EC50 for Cytomegalovirus
- Assay type: toxicity, cell-based
- MEASUREMENT PARAMETERS: human, read-out: Ratio CC50/EC50
Provide the recorded selectivity ratio for the entries that follow.
Give bare numbers.

{"COMPOUND": "CCCN1C(=O)[C@H](CCCn2cnc3c(NCc4ccccc4)ncnc32)[C@H]1c1ccccc1 (relative stereo)", "OBSERVED VALUE": 4.29}

In the following, a different compound is considered.
Q. Please give the measured selectivity ratio for this compound: O=C1[C@@H](Oc2ccccc2)[C@@H](c2ccccc2)N1CCCn1cnc2c(OCc3ccccc3)ncnc21 (relative stereo)
A. 4.13

* * *

- Test system: Chikungunya virus
- ASSAY: Antiviral activity against Chikungunya virus assessed as inhibition of virus-induced cytopathic effect by cell-based assay
- Type: functional
OUTCOME MEASURE: EC50 (µM)
Answers are plain numbers, in µM.

{"COMPOUND": "COc1ccccc1[C@@H]1[C@H](Oc2ccccc2)C(=O)N1CCn1cnc2c(NCc3ccccc3)ncnc21 (relative stereo)", "EC50, µM": 13}
{"COMPOUND": "OC[C@@H](Oc1ccccc1)[C@H](NCCn1cnc2c(NCc3ccccc3)ncnc21)c1ccc(Cl)cc1 (relative stereo)", "EC50, µM": 11.5}

In the following, a different compound is considered.
Q. Please give the measured EC50 for this compound: O=C1[C@@H](Oc2ccccc2)[C@@H](c2ccccc2)N1CCCn1cnc2c(NCc3ccccc3)ncnc21 (relative stereo)
A. 17.1

* * *

- ASSAY: Selectivity index, ratio of CC50 for HeLa cells to EC50 for Human respiratory syncytial virus
- Assay type: toxicity, cell-based
- MEASUREMENT PARAMETERS: read-out: Ratio CC50/EC50
OUTCOME MEASURE: selectivity ratio
Numbers only.

{"MOLECULE": "CC(C)N1C(=O)[C@H](CCCn2cnc3c(NCc4ccccc4)ncnc32)[C@H]1c1ccccc1F (relative stereo)", "OUTCOME MEASURE": "selectivity ratio", "OBSERVED VALUE": 9.71}

Consider the following items and state reported selectivity ratio for each.
1. O=C1[C@@H](OCc2ccccc2)[C@@H](c2ccc(Cl)cc2Cl)N1CCCn1cnc2c(NCc3ccccc3)ncnc21 (relative stereo)
2. OC[C@@H](Oc1ccccc1)[C@H](NCCn1cnc2c(NCc3ccccc3)ncnc21)c1ccc(Cl)cc1 (relative stereo)
3. O=C1[C@@H](Oc2ccccc2)[C@@H](c2ccccc2)N1CCCn1cnc2c(NCc3ccccc3)ncnc21 (relative stereo)

A.
1. 17.9
2. 4.29
3. 5.79

* * *

- Tested on: Hepatitis C virus
- ASSAY: Antiviral activity against Hepatitis C virus infected in […] cells by luciferase assay
- Format: functional, organism-based
- MEASUREMENT PARAMETERS: Hepacivirus hominis
Active and inactive are the calls of the source. The rule behind the calls is not given here.
OUTCOME MEASURE: Activity

{"COMPOUND": "CO[C@H](CO)[C@H](NCCCn1cnc2c(NCc3ccccc3)ncnc21)c1ccc(C(C)C)cc1 (relative stereo)", "Activity": "inactive"}
{"COMPOUND": "O=C1[C@H](CCn2cnc3c(OCc4ccccc4)ncnc32)[C@@H](c2ccccc2)N1Cc1ccccc1", "Activity": "inactive"}
{"COMPOUND": "CCCN1C(=O)[C@H](CCCn2cnc3c(NCc4ccccc4)ncnc32)[C@H]1c1ccccc1 (relative stereo)", "Activity": "inactive"}
{"COMPOUND": "O=C1[C@@H](OCc2ccccc2)[C@@H](c2ccccc2)N1CCn1cnc2c(NCc3ccccc3)ncnc21 (relative stereo)", "Activity": "inactive"}
{"COMPOUND": "CO[C@@H]1C(=O)N(CCCn2cnc3c(NCc4ccccc4)ncnc32)[C@@H]1c1ccc(C(C)C)cc1 (relative stereo)", "Activity": "inactive"}

In the following, a different compound is considered.
Q. Return Activity measured with Hepatitis C virus given this compound: OC[C@@H](Oc1ccccc1)[C@H](NCCn1cnc2c(NCc3ccccc3)ncnc21)c1ccc(Cl)cc1 (relative stereo)
A. inactive

// data source = ChEMBL document CHEMBL2062436
